Molecular target: canine TRPM8 (Canis lupus familiaris, UniProt Q1A7N1)
Construct: expressed in transfected cells
Sequence (Q1A7N1 1-1104): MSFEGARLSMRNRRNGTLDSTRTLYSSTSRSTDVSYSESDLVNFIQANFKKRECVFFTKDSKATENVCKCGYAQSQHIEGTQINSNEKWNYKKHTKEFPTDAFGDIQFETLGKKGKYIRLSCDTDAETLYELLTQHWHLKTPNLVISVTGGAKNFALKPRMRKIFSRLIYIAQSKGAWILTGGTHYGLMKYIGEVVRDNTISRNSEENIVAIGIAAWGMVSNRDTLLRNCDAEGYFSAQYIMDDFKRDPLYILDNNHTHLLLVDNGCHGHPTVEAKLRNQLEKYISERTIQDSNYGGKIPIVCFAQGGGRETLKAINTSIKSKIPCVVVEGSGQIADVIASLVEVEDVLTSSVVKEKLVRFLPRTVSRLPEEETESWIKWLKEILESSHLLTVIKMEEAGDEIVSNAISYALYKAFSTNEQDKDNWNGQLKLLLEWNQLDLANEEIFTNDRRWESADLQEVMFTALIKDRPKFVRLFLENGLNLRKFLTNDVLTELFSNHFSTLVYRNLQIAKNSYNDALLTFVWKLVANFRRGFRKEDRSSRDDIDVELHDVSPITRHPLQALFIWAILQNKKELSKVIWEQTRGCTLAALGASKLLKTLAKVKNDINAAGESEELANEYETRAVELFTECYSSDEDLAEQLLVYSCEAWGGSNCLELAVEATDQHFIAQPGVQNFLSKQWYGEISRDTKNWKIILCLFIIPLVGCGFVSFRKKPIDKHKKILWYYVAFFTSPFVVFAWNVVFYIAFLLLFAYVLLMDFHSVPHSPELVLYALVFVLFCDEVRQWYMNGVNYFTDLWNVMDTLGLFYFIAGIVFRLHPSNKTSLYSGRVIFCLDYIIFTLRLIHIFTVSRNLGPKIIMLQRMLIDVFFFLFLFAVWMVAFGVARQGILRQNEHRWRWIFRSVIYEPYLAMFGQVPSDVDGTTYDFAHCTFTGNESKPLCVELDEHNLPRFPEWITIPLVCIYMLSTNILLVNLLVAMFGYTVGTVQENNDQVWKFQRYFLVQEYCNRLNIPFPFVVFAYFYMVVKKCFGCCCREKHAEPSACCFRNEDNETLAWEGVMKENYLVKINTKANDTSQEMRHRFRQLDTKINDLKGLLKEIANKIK
Assay: In Vitro Canine TRPM8 Functional Assay (Ca2+ fluorescence, icilin activation)
Type: cell-based
Conditions: 0.2 μM compound; canine TRPM8 HEK293; icilin
quantity_measured: % Inh @ 0.2 μM (%)

Below: 5 molecules and their reported % Inh @ 0.2 μM.
>>> df
                                   molecule                            assayed_system  meas_value
0  O=C(C(Nc1ccccc1F)c1ccc(Br)cc1)N1CCCC1c1ccccc1F (mixture of isomers)  canine TRPM8 (Canis lupus familiaris, UniProt Q1A7N1)          97
1  O=C(O)c1cccc(-c2ccc(C(Nc3ccccc3F)C(=O)N3CCCC3c3ccccc3F)cc2)c1 (mixture of isomers)  canine TRPM8 (Canis lupus familiaris, UniProt Q1A7N1)          41
2  O=C(C(Nc1ccccc1F)c1ccc(Br)cc1)N1CCCC1c1cccnc1 (racemic)  canine TRPM8 (Canis lupus familiaris, UniProt Q1A7N1)          47
3  CS(=O)(=O)c1ccc(C(Nc2ccccc2F)C(=O)N2CCCC2c2ccccc2F)cc1 (mixture of isomers)  canine TRPM8 (Canis lupus familiaris, UniProt Q1A7N1)          55
4  O=C(C(Nc1ccccc1F)c1cc2ccccc2s1)N1CCCC1c1ccccc1F (mixture of isomers)  canine TRPM8 (Canis lupus familiaris, UniProt Q1A7N1)          98

1. CN(c1ccccc1F)C(C(=O)N1CCCC1c1ccccc1F)c1ccc(C(F)(F)F)cc1 (centres unmarked)
2. O=C(C(Nc1ccccc1F)c1cc2ccccc2s1)N1CCCC1c1ccccn1 (single isomer, unassigned)
Compare % Inh @ 0.2 μM: is it lower for 1 or for 2 ? Give the chosen item's label as your response.
1
(1: 10%, 2: 101%)

A. O=C(C(c1ccc(C(F)(F)F)cc1)N1CCCc2ccccc21)N1CCCC1c1ccccc1F (mixture of isomers)
B. O=C(C(Nc1ccccc1F)c1ccc2c(c1)CCO2)N1CCCC1c1cccnc1 (racemic)
Compare % Inh @ 0.2 μM: is it lower for A or for B ? Give the chosen item's label as your response.
B
(B: 17%, A: 45%)

1. O=C(C(Nc1ccccc1F)c1ccc2ncccc2c1)N1CCCC1c1ccccc1Cl (single isomer, unassigned)
2. O=C(C(Nc1ccccc1)c1ccccn1)N1Cc2ccccc2C1 (racemic)
Compare % Inh @ 0.2 μM: is it lower for 1 or for 2 ? Give the chosen item's label as your response.
2
(2: 32%, 1: 49%)

a. CC(C)(C)c1ccc(C(Nc2ccccc2F)C(=O)N2CCCC2c2ccccc2F)cn1 (single isomer, unassigned)
b. CNC(=O)c1ccc(C(Nc2c(F)cccc2F)C(=O)N2CCCC2c2ccccc2F)cc1 (mixture of isomers)
Compare % Inh @ 0.2 μM: is it lower for a or for b ? Give the chosen item's label as your response.
b
(b: 15%, a: 57%)

A. O=C(C(Nc1ccccc1F)c1ccc(-c2ccccc2)nc1)N1CCCC1c1ccccc1F (single isomer, unassigned)
B. O=C(C(Nc1ccccc1F)c1cnc2ccccc2c1)N1CCCC1c1cccnc1 (single isomer, unassigned)
C. COC(=O)c1cc(C(Nc2ccccc2F)C(=O)N2CCCC2c2ccccc2F)ccc1Cl (mixture of isomers)
Sort the molecules on % Inh @ 0.2 μM; start with the lowest figure. To answer, write out the labels according to the requested order.
A, B, C

---

Target: canine TRPM8 (Canis lupus familiaris)
Construct: expressed in transfected cells
Assay: In Vitro Canine TRPM8 Functional Assay (Ca2+ fluorescence, icilin activation)
Format: cell-based
Details: 1 μM compound; canine TRPM8 HEK293; icilin; 1 µM
quantity_measured: % Inh @ 1 μM (%)

Below: 2 molecules and their reported % Inh @ 1 μM.
                                   molecule  quantity_measured  unit_descriptor  meas_value
0  CC(C)(C)c1ccc(C(Nc2ccccc2)C(=O)N2CCCC2c2ccc(Cl)cc2)cc1 (single isomer, unassigned) [Cpd 7]       % Inh @ 1 μM                %       89.12
1  CC(C)(C)c1ccc(C(Nc2ccccc2)C(=O)N2CCCC2c2cccc(Cl)c2)cc1 (single isomer, unassigned)       % Inh @ 1 μM                %      102.98

A. CC(C)(C)c1ccc(C(Nc2ccccc2)C(=O)N2CCCC2c2ccccc2Cl)cc1 (single isomer, unassigned)
B. CC(C)(C)c1ccc(C(Nc2ccccc2)C(=O)N2CCCC2c2ccc(Cl)cc2)cc1 (single isomer, unassigned) [Cpd 367]
Compare % Inh @ 1 μM: is it lower for A or for B ? Give the chosen item's label as your response.
B

---

Biological target: canine TRPM8 (Canis lupus familiaris, UniProt Q1A7N1)
Construct: expressed in transfected cells
Assay: In Vitro Canine TRPM8 Functional Assay (Ca2+ fluorescence, icilin activation)
Type: cell-based
Details: 0.2 μM compound; canine TRPM8 HEK293; icilin
quantity_measured: % Inh @ 0.2 μM (%)

                                   compound  quantity_measured  meas_value
0  Cc1c(C(Cc2ccccc2F)C(=O)N2CCCC2c2ccccc2F)sc2ccccc12 (mixture of isomers) [Cpd 177]     % Inh @ 0.2 μM          63
1  O=C(C(Nc1ccccc1F)c1ccc(C(F)(F)F)cc1)N1CCCC1c1ccccc1Cl (stereo not shown) [Cpd 188]     % Inh @ 0.2 μM          30
2  Cn1cc(C(Nc2ccccc2F)C(=O)N2CCCC2c2ccccc2F)c2ccccc21 (racemic) [Cpd 250]     % Inh @ 0.2 μM          25
3  O=C(C(Nc1c(F)cccc1F)c1ccc(Cl)cc1)N1CCCC1c1cccnc1 (mixture of isomers) [Cpd 270]     % Inh @ 0.2 μM          58
4  COC(=O)c1cccc(C2CCCN2C(=O)C(Nc2ccccc2F)c2ccc(C(F)(F)F)cc2)c1 (mixture of isomers) [Cpd 221]     % Inh @ 0.2 μM         102

A. O=C(C(c1ccc(C(F)(F)F)cc1)N1CCCc2ccccc21)N1CCCC1c1cccnc1 (mixture of isomers) [Cpd 336]
B. O=C(C(Nc1ccccc1)c1cccnc1)N1Cc2ccccc2C1 (racemic) [Cpd 215]
Name the one with the greater % Inh @ 0.2 μM value, either A or B as given. Give the chosen item's label as your response.
A

---

Target: canine TRPM8 (Canis lupus familiaris)
Test: In Vitro Canine TRPM8 Functional Assay (Ca2+ fluorescence, icilin activation)
Details: HEK293 cells stably expressing canine TRPM8; icilin activation; Ca2+ fluorescence
quantity_measured: IC50 (nM)

>>> print(df.to_string())
                                   compound  meas_value
0  O=C(C(Nc1cc(F)ccc1F)c1ccc(Cl)cc1)N1CCCC1c1ccccc1F (stereo not shown) [Cpd 170]        26.5

1. Nc1ccc(C2CCCN2C(=O)C(Nc2ccccc2F)c2ccc(Cl)cc2)cc1 (stereo not shown) [Cpd 290]
2. CCOC(=O)c1ccc(C(Nc2c(F)cccc2F)C(=O)N2CCC[C@H]2c2ccccc2F)cc1 (stereo partly shown) [Cpd 183]
3. O=C(C(Nc1ccccc1)c1ccc(Br)cc1)N1Cc2ccccc2C1 (stereo not shown) [Cpd 71]
Sort the compounds on IC50; start with the lowest figure. To answer, write out the labels according to the requested order.
1, 2, 3

I. CC(C)(C)c1ccc(C(Nc2ccccc2)C(=O)N2CCC(c3ccccc3)C2)cc1 (stereo not shown) [Cpd 13]
II. O=C(C(c1ccc(C(F)(F)F)cc1)N1CCc2ccccc21)N1CCC[C@H]1c1cccnc1 (mixture of isomers) [Cpd 275]
III. O=C(O)c1cccc([C@@H]2CCCN2C(=O)C(Nc2ccccc2F)c2ccc(C(F)(F)F)cc2)c1 (mixture of isomers) [Cpd 349]
IV. O=C(C(Nc1ccccc1F)c1ccc(Cl)cc1)N1CCC[C@H]1c1ccccc1F (mixture of isomers) [Cpd 156]
V. O=C(C(Nc1ccccc1)c1ccc(C(F)(F)F)cc1)N1CCCC1c1ccccc1Cl (single isomer, unassigned) [Cpd 21]
Sort the compounds on IC50; start with the lowest figure. To answer, write out the labels according to the requested order.
IV, II, III, V, I

P. CC(C)(C)c1ccc(C(Nc2ccccc2)C(=O)N2CCC(O)(c3ccccc3)CC2)cc1 (stereo not shown) [Cpd 3]
Q. COC(=O)c1cccc([C@@H]2CCCN2C(=O)C(Nc2ccccc2F)c2ccc(C(F)(F)F)cc2)c1 (mixture of isomers) [Cpd 347]
R. O=C(C(Nc1ccccc1)c1ccc(C(F)(F)F)cc1)N1CCCC1c1ccccc1Cl (racemic) [Cpd 16]
S. O=C(C(Nc1ccccc1)c1cccc(C(F)(F)F)c1)N1CCCC1c1ccccc1Cl (stereo not shown) [Cpd 97]
Sort the compounds on IC50; start with the lowest figure. To answer, write out the labels according to the requested order.
R, Q, S, P

I. O=C(C(c1ccc(C(F)(F)F)cc1)N1CCc2ccccc21)N1CCCC1c1ccccc1 (stereo not shown) [Cpd 227]
II. Cc1cccc2c1N(C(=O)C(Nc1ccccc1)c1ccc(C(F)(F)F)cc1)CC2 (stereo not shown) [Cpd 27]
Name the one with the greater IC50 value, either I or II as given. Give the chosen item's label as your response.
II
(II: 316 nM, I: 30.6 nM)
